Each recorded value in this set is attributed to patent US11596639B2.

Would you mind telling me the reported pKi of each entry?
# STUDY_TARGET: Mcl-1 (Homo sapiens (Human), UniProt Q07820)
# Sequence (Q07820 172-327): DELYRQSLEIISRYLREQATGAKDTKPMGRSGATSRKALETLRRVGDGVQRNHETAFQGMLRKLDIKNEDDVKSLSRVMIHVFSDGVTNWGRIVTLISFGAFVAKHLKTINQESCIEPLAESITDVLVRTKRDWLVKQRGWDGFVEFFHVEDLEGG
# ASSAY_DETAILS: Fluorescence polarization anisotropy (FPA) competition assay, FITC-Bak or FITC-Bim BH3 peptide
# Format: binding
# CONDITION_LABEL: read-out: Ki for Inhibition of Mcl-1 by FPA assay
pKi: −log10 of the molar value.

Below: 8 compounds and their reported pKi.
Prompt: Consider the compound shown here: Cc1cc(OCCCc2c3n(c4c(-c5c(C)ncnc5C)c(C)ccc24)[C@H](C)CN(c2cccc4cc(C(=O)O)n(Cc5ccccn5)c24)C3=O)cc(C)c1Cl (atropisomer, axis not shown) [Example 271] What is its recorded pKi?
Response: > 9.00

Prompt: Fill blank: measured pKi of the compound Cc1cc(OCCCc2c3n(c4c(-c5c(C)nn(C)c5C)c(Cl)ccc24)[C@H](C)CN(c2cccc4c(C)c(C(=O)O)n(C)c24)C3=O)cc(C)c1Cl [Example 316] is ____.
Response: > 9.00

Prompt: Return reported pKi; argument: Cc1cc(OCCCc2c3n(c4c(-c5c(C)n[nH]c5C)c(Cl)ccc24)CCCN(c2cc(C(=O)O)cc4c2ccn4C)C3=O)cc(C)c1Cl [Example 72]
Response: > 9.00

Prompt: Query (compound): COc1ccc(N2C[C@@H](C)n3c(c(CCCOc4cc(C)c(Cl)c(C)c4)c4ccc(Cl)c(-c5c(C)ncnc5C)c43)C2=O)c2c1cc(C(=O)O)n2Cc1ccccn1 [Example 302] ; field requested: pKi
Response: > 9.00

Prompt: What pKi value was documented for this compound, Cc1cc(OCCCc2c3n(c4c(-c5c(C)nn(C)c5C)c(Cl)ccc24)[C@H](C)CN(c2cccc4ccn(C)c24)C3=O)cc(C)c1Cl [Example 234] ?
Response: > 9.00

Prompt: What does the data say about its pKi? Entry: Cc1cc(OCCCc2c3n(c4c(-c5c(C)nn(C)c5C)c(Cl)ccc24)[C@H](C)CN(c2cc(OCCN(C)C)cc4cc(C(=O)O)n(C)c24)C3=O)cc(C)c1Cl [Example 455]
Response: > 9.00

Prompt: For the compound Cc1cc(OCCCc2c3n(c4c(-c5c(C)ncnc5C)c(Cl)ccc24)CCCN(c2cccc4c(C(=O)O)cccc24)C3=O)cc(C)c1Cl [Example 151] , what pKi is on record?
Response: > 9.00

Prompt: Using the record for Cc1cc(OCCCc2c3n(c4c(-c5c(C)nn(C)c5C)c(Cl)ccc24)[C@H](C)CN(c2cc(OCCN4CCOCC4)cc4cc(C(=O)O)n(C)c24)C3=O)cc(C)c1Cl [Example 458] , report its pKi.
Response: 8.92

Below is a list of compounds. For each, state its recorded pKi.
1. Cc1nn(C)c(C)c1-c1c(Cl)ccc2c(CCCOc3ccccc3)c3n(c12)[C@H](C)CN(c1cn(C)c2ccc(C(=O)O)cc12)C3=O [Example 408]
2. Cc1cc(OCCCc2c3n(c4c(-c5c(C)nn(C)c5C)c(Cl)ccc24)[C@H](C)CN(c2cccc4c(C(=O)O)cn(C)c24)C3=O)cc(C)c1Cl [Example 69]
3. Cc1cc(OCCCc2c3n(c4c(-c5c(C)nn(C)c5C)c(Cl)ccc24)[C@H](C)[C@@H](C)NC3=O)cc(C)c1Cl [Example 140]
4. CCn1ncc2c(C(=O)O)cc(N3C[C@@H](C)n4c(c(CCCOc5cc(C)c(Cl)c(C)c5)c5ccc(Cl)c(-c6c(C)nn(C)c6C)c54)C3=O)cc21 [Example 87]
5. Cc1cc(OCCCc2c3n(c4c(-c5c(C)nn(C)c5C)c(Cl)ccc24)[C@H](C)CN(c2cccc4nn(C)c(C(=O)O)c24)C3=O)cc(C)c1Cl [Example 133]
6. Cc1cc(OCCCc2c3n(c4c(-c5c(C)nn(C)c5C)c(Cl)ccc24)CCCN(c2cc(C(=O)O)c4cn(CCN(C)C)nc4c2)C3=O)cc(C)c1Cl [Example 42]
7. Cc1cc(OCCCc2c3n(c4c(-c5c(C)ncnc5C)c(Cl)ccc24)[C@H](C)CN(c2cccc4c2c(C(=O)O)cn4C)C3=O)cc(C)c1Cl [Example 252]
8. Cc1cc(OCCCc2c3n(c4c(-c5c(C)nn(C)c5C)c(Cl)ccc24)[C@H](C)CN(c2cc(C(C)C)cc4cc(C(=O)O)n(C)c24)C3=O)cc(C)c1Cl [Example 356]

Response:
8.66
> 9.00
7.10
> 9.00
> 9.00
8.10
8.89
8.72
